Value source: patent US11371055B2

# system_tested: AAD-12 (v2) (Delftia acidovorans)
# Construct: made in house; host or cells: Pseudomonas fluorescens strain MB324 (construct pDAB739)
# test_details: Chloropyridinol detection assay (absorbance at 325 nm)
# Assay type: biochemical
# reported_conditions: 6.8 μg AAD-12 (v2), 1 mM substrate, 325 nm, background rate 1.4 mAU/min subtracted
observable: Rate (mAU/min)

O=C(O)COc1nc(Cl)c(Cl)cc1Cl = 97
O=C(O)COc1nc(F)c(Cl)cc1Cl = 118
CC(Oc1nc(Cl)c(Cl)cc1Cl)C(=O)O (centres unmarked) = 257
CC(Oc1ncc(Cl)cc1Cl)C(=O)O (centres unmarked) = 225
CC(Oc1nc(F)c(Cl)cc1Cl)C(=O)O (centres unmarked) = 190

###

# system_tested: AAD-12 (v2) (Delftia acidovorans, UniProt P83309)
# Construct: made in house; host or cells: Pseudomonas fluorescens strain MB324 (construct pDAB739)
# Sequence (P83309 whole entry, looked up, natural form): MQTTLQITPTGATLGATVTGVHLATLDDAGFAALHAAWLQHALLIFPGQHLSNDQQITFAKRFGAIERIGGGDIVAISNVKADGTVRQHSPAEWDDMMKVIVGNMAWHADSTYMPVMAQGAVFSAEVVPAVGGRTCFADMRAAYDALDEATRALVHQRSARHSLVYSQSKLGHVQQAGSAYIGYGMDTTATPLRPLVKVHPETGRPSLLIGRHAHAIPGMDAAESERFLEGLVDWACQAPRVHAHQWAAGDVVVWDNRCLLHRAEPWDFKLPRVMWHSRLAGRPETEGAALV
# test_details: Chloropyridinol detection assay (absorbance at 325 nm)
# Assay type: biochemical
# reported_conditions: 6.8 μg AAD-12 (v2), 1 mM substrate
observable: Rate relative to triclopyr

O=C(O)COc1nc(Cl)c(Cl)cc1Cl [triclopyr] = 1
O=C(O)COc1nc(F)c(Cl)cc1Cl [compound 93833] = 0.5
CC(Oc1nc(Cl)c(Cl)cc1Cl)C(=O)O (centres unmarked) [compound 116844] = 1.4
CC(Oc1nc(F)c(Cl)cc1Cl)C(=O)O (centres unmarked) [compound 91767] = 0.8
CC(Oc1ncc(Cl)cc1Cl)C(=O)O (centres unmarked) [compound 66357] = 2.3
